system: Histamine Stimulated Gastric Acid Secretion; experiment: Rat: Lumen Perfumed Stomach (Histamine Stimulated Gastric Acid Secretion); assay type: in vivo; conditions: i.v.
Below, each entry is listed alongside its reported % inhibition at 1 μM/kg.
Give the number; % is assumed, so skip it.

compound	units_label	% inhibition at 1 μM/kg
COc1ccc2[nH]c([S+]([O-])Cc3nccc(N(C)C)c3F)nc2c1 (centres unmarked)	%	26

Could you share which % inhibition at 1 μM/kg value was measured for COc1ccc2[nH]c([S+]([O-])Cc3cc(N4CCOCC4)c(F)cn3)nc2c1 (centres unmarked) ? 51

Thanks! And COc1cc2nc([S+]([O-])Cc3nccc(N(C)C)c3F)[nH]c2cc1OC (centres unmarked) ? 46

Thanks! And COc1cc2nc([S+]([O-])Cc3nccc(N4CCOCC4)c3F)[nH]c2cc1OC (centres unmarked) ? 33

Thanks! And COc1ccc2[nH]c([S+]([O-])Cc3cc(N(C)C)c(F)cn3)nc2c1 (centres unmarked) ? 37
